This collection of values is drawn from patent US8188102B2.

target: EGFR T790M kinase (Homo sapiens, UniProt P00533, T790M); experiment: Inhibition of EGFR mutant enzyme (T790M); conditions: read-out: IC50 (nM) T790M; EGFR T790M kinase
Sequence (P00533 25-1210 T790M): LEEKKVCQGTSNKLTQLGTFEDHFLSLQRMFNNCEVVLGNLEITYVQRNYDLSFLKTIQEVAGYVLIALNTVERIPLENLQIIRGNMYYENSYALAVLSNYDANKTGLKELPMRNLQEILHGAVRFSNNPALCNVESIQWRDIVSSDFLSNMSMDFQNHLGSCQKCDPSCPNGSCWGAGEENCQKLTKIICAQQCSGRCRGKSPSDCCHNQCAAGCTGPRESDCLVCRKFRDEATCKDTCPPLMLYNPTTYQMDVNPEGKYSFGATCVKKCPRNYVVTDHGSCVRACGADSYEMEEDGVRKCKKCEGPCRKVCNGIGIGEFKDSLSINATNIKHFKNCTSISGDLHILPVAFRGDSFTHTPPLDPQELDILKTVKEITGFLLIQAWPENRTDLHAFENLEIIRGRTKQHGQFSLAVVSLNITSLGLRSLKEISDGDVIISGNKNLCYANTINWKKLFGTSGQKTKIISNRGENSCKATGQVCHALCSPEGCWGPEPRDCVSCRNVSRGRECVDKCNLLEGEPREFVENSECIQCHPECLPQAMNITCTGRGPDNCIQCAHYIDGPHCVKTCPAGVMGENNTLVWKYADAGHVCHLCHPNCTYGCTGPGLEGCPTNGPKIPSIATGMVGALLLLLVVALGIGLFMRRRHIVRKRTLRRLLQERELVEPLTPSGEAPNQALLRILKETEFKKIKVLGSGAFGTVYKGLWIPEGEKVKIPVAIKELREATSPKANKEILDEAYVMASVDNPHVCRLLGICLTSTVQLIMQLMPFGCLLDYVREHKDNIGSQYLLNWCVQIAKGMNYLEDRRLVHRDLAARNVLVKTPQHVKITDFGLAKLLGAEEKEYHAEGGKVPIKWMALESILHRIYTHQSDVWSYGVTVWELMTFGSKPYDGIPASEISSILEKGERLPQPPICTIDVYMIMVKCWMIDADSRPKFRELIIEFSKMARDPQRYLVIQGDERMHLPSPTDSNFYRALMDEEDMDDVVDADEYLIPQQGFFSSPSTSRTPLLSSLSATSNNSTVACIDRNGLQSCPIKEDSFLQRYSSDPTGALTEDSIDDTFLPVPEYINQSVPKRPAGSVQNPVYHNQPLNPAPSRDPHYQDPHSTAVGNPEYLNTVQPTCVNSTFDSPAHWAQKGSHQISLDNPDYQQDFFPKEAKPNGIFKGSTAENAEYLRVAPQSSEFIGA
measured metric: IC50 (nM)
All answers are understood in nM, so give the number only.

For the molecule shown here, C=C(CN(C)C)C(=O)N1CC(Oc2cc3c(Nc4ccc(F)c(Cl)c4F)ncnc3cc2OC)C1 [Example 104] , give the reported IC50.
2

For the molecule shown here, C=CC(=O)N1CC(Oc2cc3c(N[C@H](C)c4ccccc4)ncnc3cc2OC)C1 [Example 22] , give the reported IC50.
15

For the molecule shown here, C=CC(=O)N1CCC(Oc2cc3c(Nc4cccc(C)c4)ncnc3cc2OC)CC1 [Example 41] , give the reported IC50.
9.3

For the molecule shown here, C=CC(=O)N1CC[C@H](Oc2ccc3ncnc(Nc4ccc(OCc5cccc(F)c5)c(Cl)c4)c3c2)C1 [Example 16] , give the reported IC50.
47

For the molecule shown here, C=CC(=O)N1CC[C@H](Oc2cc3c(Nc4ccc(F)c(Cl)c4F)ncnc3cc2OC)C[C@H]1C(=O)NCCN(C)C [Example 130] , give the reported IC50.
6.6

For the molecule shown here, C=CC(=O)N1CC[C@H](Oc2cc3c(Nc4ccc(F)c(Cl)c4F)ncnc3cc2OC)C[C@H]1C(=O)NCCS(C)(=O)=O [Example 129] , give the reported IC50.
3

For the molecule shown here, C=CC(=O)N1CCC(Oc2cc3c(Nc4ccc(Br)c(C)c4)ncnc3cc2OC)CC1 [Example 39] , give the reported IC50.
7.6

For the molecule shown here, C=CC(=O)N1CC[C@H](Oc2cc3c(Nc4ccc(Br)c(Cl)c4F)ncnc3cc2OC)C1 [Example 7] , give the reported IC50.
8

For the molecule shown here, C=CC(=O)N1CC(Oc2cc3c(Nc4cccc(Cl)c4)ncnc3cc2OC)C1 [Example 26] , give the reported IC50.
3.3
